Recorded MIC, one value per entry.
Test system: Pseudomonas BRK 12-4-4
Procedure text: in vitro antibacterial activity, minimal inhibitory concentration
Format: cell-based
Run conditions: BRK1244; Pseudomonas BRK 12-4-4, in vitro
Description: The compounds of the invention are new chemical compounds that are used as pharmacological agents and especially as broad spectrum antibacterial agents. They are active in vitro against strains of both gram-positive and gram-negative bacteria. Minimal Inhibitory Concentration (μg/ml)
In your response, put the unit directly after the numeric value.

Worked cases, MIC given:
Compound	Study target	MIC
CC(=O)NCCCCC(NC(C)=O)C(=O)Nc1ccc(-c2ncc(C(=O)N[C@@H](C(=O)N[C@@H]3C(=O)N4C(C(=O)O)=C(COC(C)=O)CS[C@H]34)c3ccccc3)c(O)n2)cc1 (mixture of isomers) [Example 12]	Pseudomonas BRK 12-4-4	12.5 µg/mL
CC(=O)NCCC(=O)Nc1ccc(-c2ncc(C(=O)N[C@@H](C(=O)N[C@@H]3C(=O)N4C(C(=O)O)=C(COC(C)=O)CS[C@H]34)c3ccccc3)c(O)n2)cc1 [Example 3]	Pseudomonas BRK 12-4-4	12.5 µg/mL
CC(=O)NCCCC(=O)Nc1ccc(-c2ncc(C(=O)N[C@@H](C(=O)NC3C(=O)N4C(C(=O)O)=C(CSc5nnnn5C)CSC34)c3ccccc3)c(O)n2)cc1 (stereo partly shown) [Example 27]	Pseudomonas BRK 12-4-4	12.5 µg/mL

Need MIC, item CC(=O)N[C@H](C)C(=O)Nc1ccc(-c2ncc(C(=O)N[C@@H](C(=O)N[C@@H]3C(=O)N4C(C(=O)O)=C(COC(C)=O)CS[C@H]34)c3ccc(O)cc3)c(O)n2)cc1 [Example 11]
6.3 µg/mL

Need MIC, item CC(=O)NC(C)C(=O)Nc1ccc(-c2ncc(C(=O)N[C@@H](C(=O)NC3C(=O)N4C(C(=O)O)=C(CSc5nnc(C)s5)CSC34)c3ccccc3)c(O)n2)cc1 (mixture of isomers) [Example 40]
12.5 µg/mL

Need MIC, item CC(=O)NC(CC(C)C)C(=O)Nc1ccc(-c2ncc(C(=O)N[C@@H](C(=O)N[C@@H]3C(=O)N4C(C(=O)O)=C(COC(C)=O)CS[C@H]34)c3ccccc3)c(O)n2)cc1 (mixture of isomers) [Example 4]
12.5 µg/mL

Need MIC, item CSCCC(NC(C)=O)C(=O)Nc1ccc(-c2ncc(C(=O)N[C@@H](C(=O)N[C@@H]3C(=O)N4C(C(=O)O)=C(COC(C)=O)CS[C@H]34)c3ccccc3)c(O)n2)cc1 (mixture of isomers) [Example 5]
6.3 µg/mL

Need MIC, item CC(=O)OCC1=C(C(=O)O)N2C(=O)[C@@H](NC(=O)[C@H](NC(=O)c3cnc(-c4ccc(NC(=O)C5CCC(=O)N5)cc4)nc3O)c3ccccc3)[C@H]2SC1 (mixture of isomers) [Example 6]
12.5 µg/mL

Need MIC, item C[C@@H](N)C(=O)Nc1ccc(-c2ncc(C(=O)N[C@@H](C(=O)NC3C(=O)N4C(C(=O)O)=C(CSc5nnnn5CC(=O)O)CSC34)c3ccccc3)c(O)n2)cc1 (stereo partly shown) [Example 38]
3.1 µg/mL

Need MIC, item CC(=O)N[C@@H](C)C(=O)Nc1ccc(-c2ncc(C(=O)N[C@@H](C(=O)NC3C(=O)N4C(C(=O)O)=C(CSc5nnnn5C)CSC34)c3ccccc3)c(O)n2)cc1 (stereo partly shown) [Example 26]
12.5 µg/mL

Values were extracted from patent US4311699A.
